assay: Displacement of [125I]-CCL2 from HCMV US28 expressed in HEK293 cells after 3 hrs by gamma counting method; assay type: cell-based, Human betaherpesvirus 5
Known pIC50 of a selection of molecules
measure name: pIC50

{"structure": "Cc1nc2ccccc2n1CC1CCN(Cc2ccc(F)c(F)c2)CC1", "measure name": "pIC50", "endpoint result": 5.28}
{"structure": "COC(=O)c1ccc(NC(=O)CN2CCC(Cn3c(C)nc4ccccc43)CC2)cc1", "measure name": "pIC50", "endpoint result": 5.02}
{"structure": "Cc1nc2ccccc2n1CC1CCN(CC(=O)Nc2ccc(OC(F)(F)F)cc2)CC1", "measure name": "pIC50", "endpoint result": 5.68}
{"structure": "Cc1nc2ccccc2n1CC1CCN(CC(=O)Nc2cc(C(F)(F)F)ccc2Cl)CC1", "measure name": "pIC50", "endpoint result": 5.52}
{"structure": "Cc1ccc(NC(=O)CN2CCC(Cn3cnc4ccccc43)CC2)cc1Cl", "measure name": "pIC50", "endpoint result": 5.82}
